Cited source: ChEMBL document CHEMBL4414559

test: Stability in human molar dentin at 3.5 mg after 1 hr by flexural assay; assay type: ADME, tissue-based, Dentine; conditions: in vitro
endpoint: Stability

>>> val("Oc1cc(O)c2c(c1)O[C@H](c1ccc(O)c(O)c1)[C@H](O)[C@H]2c1c(O)cc(O)c2c1O[C@H](c1ccc(O)c(O)c1)[C@H](O)[C@H]2c1c(O)cc(O)c2c1O[C@@H](c1ccc(O)c(O)c1)[C@H](O)C2")
"Stable"
>>> val("Oc1cc(O)c2c(c1)O[C@H](c1ccc(O)c(O)c1)[C@H](O)[C@H]2c1c(O)cc(O)c2c1O[C@H](c1ccc(O)c(O)c1)[C@@H](O)C2")
"Stable"
>>> val("Oc1cc(O)c2c(c1)O[C@H](c1ccc(O)c(O)c1)[C@H](O)[C@H]2c1c(O)cc(O)c2c1O[C@@H](c1ccc(O)c(O)c1)[C@@H](O)C2")
"Stable"
>>> val("Oc1cc(O)c2c(c1)O[C@@H](c1ccc(O)c(O)c1)[C@H](O)[C@H]2c1c(O)cc(O)c2c1O[C@H](c1ccc(O)c(O)c1)[C@@H](O)C2")
"Stable"
>>> val("Oc1cc(O)c2c(c1)O[C@H](c1ccc(O)c(O)c1)[C@@H](O)[C@@H]2c1c(O)cc(O)c2c1O[C@H](c1ccc(O)c(O)c1)[C@@H](O)C2")
"Stable"
>>> val("Oc1cc(O)c2c(c1)O[C@H](c1ccc(O)c(O)c1)[C@H](O)[C@H]2c1c(O)cc(O)c2c1O[C@H](c1ccc(O)c(O)c1)[C@H](O)C2")
"Stable"

Return the recorded Stability value; entry: Oc1cc(O)c2c(c1)O[C@@H](c1ccc(O)c(O)c1)[C@H](O)[C@H]2c1c(O)cc(O)c2c1O[C@H](c1ccc(O)c(O)c1)[C@H](O)C2
Stable

Return the recorded Stability value; entry: Oc1cc(O)c2c(c1)O[C@H](c1ccc(O)c(O)c1)[C@H](O)[C@H]2c1c(O)cc(O)c2c1O[C@H](c1ccc(O)c(O)c1)[C@H](O)[C@H]2c1c(O)cc(O)c2c1O[C@H](c1ccc(O)c(O)c1)[C@@H](O)C2
Stable

Return the recorded Stability value; entry: Oc1cc(O)c2c(c1)O[C@H](c1ccc(O)c(O)c1)[C@H](O)[C@H]2c1c(O)cc(O)c2c1O[C@@H](c1ccc(O)c(O)c1)[C@H](O)C2
Stable
